- MEASURED_ON: T1, proMMP-9 purified from THP-1 cells (human (endogenous in THP-1), UniProt P14780 20-707)
- T1 construct: matrix metalloprotease-9 proenzyme, human; pre domain cleaved off, the mature proenzyme is 20-707; the preparation holds a small amount of TIMP-1; monomer and reduction-sensitive homomultimer; also called pMMP-9; promatrix metalloprotease-9; source: purified from conditioned medium of PMA-stimulated THP-1 cells (Q-Sepharose pass-through, gelatin-Sepharose)
- ASSAY_PROCEDURE: peptide or protein array; 20-mer walk of the SG core protein on cellulose, two-residue shift; 8.8 ul of 11.2 ug/mL proMMP-9 in 10 mL blocking buffer, 1-4 h, room temperature; antibody against MMP-9
- REPORTED_CONDITIONS: both partners purified
PROPERTY_MEASURED: binding result

// below: answered binders
BINDER	RECORDED_MEASUREMENT
PRLRTDLFPKTRIQDLNRIF (peptide, UniProt P10124 68-87, looked up, serglycin core protein, spot 21 of the 20-mer walk with two-residue shift; numbers count on: the mature protein (1-131); source: synthetic peptide on a cellulose membrane) [SG peptide 21]	binds
GPMFELLPGESNKIPRLRTD (peptide, UniProt P10124 54-73, looked up, serglycin core protein, spot 14 of the 20-mer walk with two-residue shift; numbers count on: the mature protein (1-131); source: synthetic peptide on a cellulose membrane) [SG peptide 14]	binds
TRIQDLNRIFPLSEDYSGSG (peptide, UniProt P10124 78-97, looked up, serglycin core protein, spot 26 of the 20-mer walk with two-residue shift; numbers count on: the mature protein (1-131); source: synthetic peptide on a cellulose membrane) [SG peptide 26]	binds
LFPKTRIQDLNRIFPLSEDY (peptide, UniProt P10124 74-93, looked up, serglycin core protein, spot 24 of the 20-mer walk with two-residue shift; numbers count on: the mature protein (1-131); source: synthetic peptide on a cellulose membrane) [SG peptide 24]	binds
LVDESDAFHDNLRSLDRNLP (peptide, UniProt P10124 122-141, looked up, serglycin core protein, spot 48 of the 20-mer walk with two-residue shift; numbers count on: the mature protein (1-131); source: synthetic peptide on a cellulose membrane) [SG peptide 48]	binds
MFELLPGESNKIPRLRTDLF (peptide, UniProt P10124 56-75, looked up, serglycin core protein, spot 15 of the 20-mer walk with two-residue shift; numbers count on: the mature protein (1-131); source: synthetic peptide on a cellulose membrane) [SG peptide 15]	binds

// for each binder in input: emit binding result
1. TDLFPKTRIQDLNRIFPLSE (peptide, UniProt P10124 72-91, looked up, serglycin core protein, spot 23 of the 20-mer walk with two-residue shift; numbers count on: the mature protein (1-131); source: synthetic peptide on a cellulose membrane) [SG peptide 23]
2. IQDLNRIFPLSEDYSGSGFG (peptide, UniProt P10124 80-99, looked up, serglycin core protein, spot 27 of the 20-mer walk with two-residue shift; numbers count on: the mature protein (1-131); source: synthetic peptide on a cellulose membrane) [SG peptide 27]
3. VRCNPDSNSANCLEEKGPMF (peptide, UniProt P10124 38-57, looked up, serglycin core protein, spot 6 of the 20-mer walk with two-residue shift; numbers count on: the mature protein (1-131); source: synthetic peptide on a cellulose membrane) [SG peptide 6]

["binds", "binds", "binds"]

// for each binder in input: emit binding result
1. PKTRIQDLNRIFPLSEDYSG (peptide, UniProt P10124 76-95, looked up, serglycin core protein, spot 25 of the 20-mer walk with two-residue shift; numbers count on: the mature protein (1-131); source: synthetic peptide on a cellulose membrane) [SG peptide 25]
2. LRTDLFPKTRIQDLNRIFPL (peptide, UniProt P10124 70-89, looked up, serglycin core protein, spot 22 of the 20-mer walk with two-residue shift; numbers count on: the mature protein (1-131); source: synthetic peptide on a cellulose membrane) [SG peptide 22]
3. YQLVDESDAFHDNLRSLDRN (peptide, UniProt P10124 120-139, looked up, serglycin core protein, spot 47 of the 20-mer walk with two-residue shift; numbers count on: the mature protein (1-131); source: synthetic peptide on a cellulose membrane) [SG peptide 47]

1: binds; 2: binds; 3: binds
